Consider the following compounds; for each one, report its survival.
Tested on: DeltatarO mutant
METHOD DESCRIPTION: S. aureus survival, RN4220 and DeltatarO strains – OD600, teichoic acid synthesis inhibitors, primary screen (AID 463173)
CONDITION DESCRIPTION: S. aureus RN4220 wild type/DeltatarO growth, OD600, 18 h, hits give low values, screened at 18.75 µg/mL (by protocol)
Hit rate of the full screen: of about 52,000 compounds, about 4,300 (8.3%) were called active. The sample as a whole holds a higher share of actives than the screen did.
Write the answer as a number in %, unit excluded.

Ask: Complete the entry with survival for COc1ccc2sc(C)[n+](CCO)c2c1
Reply: 81

Ask: Complete the entry with survival for COc1ccc(-c2nn3c(-c4ccc(OC)cc4)nnc3c3ccccc23)cc1
Reply: 102

Ask: Complete the entry with survival for CC1CCCN(S(=O)(=O)c2ccc3c(c2)CCN3C(=O)CCC(=O)O)C1 (stereo unspecified)
Reply: 96

Ask: Complete the entry with survival for Cc1ccc(-c2nnc3c4ccccc4c(-c4ccccc4)nn23)cc1
Reply: 134

Ask: Complete the entry with survival for COc1ccc(CNC2CCCC2)cc1
Reply: 79

Ask: Complete the entry with survival for COc1cccc(N2CC(NC(=O)c3cccc(OC)c3OC)CC2=O)c1 (stereo unspecified)
Reply: 115

Ask: Complete the entry with survival for CCc1nc2ccccc2n1CCCCOc1ccccc1C
Reply: 0

Ask: Complete the entry with survival for COc1ccc(NCc2cccn2-c2nnc(N3CCOCC3)s2)c(OC)c1
Reply: 78

Ask: Complete the entry with survival for CC(C)CN(CCNC(=O)c1cc(=O)[nH]c2ccc(S(=O)(=O)N3CCCCCC3)cc12)CC(C)C
Reply: 86

Ask: Complete the entry with survival for CCc1nc2ccccc2n1CCCCOc1ccc(Cl)cc1
Reply: -3

Ask: Complete the entry with survival for COc1cc(OC)cc(C(=O)Nc2c(C(=O)Nc3ccc(F)cc3)oc3ccccc23)c1
Reply: 62

Ask: Complete the entry with survival for Cc1ccc(NC(=O)c2oc3ccccc3c2NC(=O)C23CC4CC(CC(C4)C2)C3)cc1
Reply: 75

Ask: Complete the entry with survival for O=C1C2C3C=CC(C3)C2C(=O)N1CCCCN1C(=O)C2C3C=CC(C3)C2C1=O (stereo unspecified)
Reply: 93

Ask: Complete the entry with survival for COc1cccc(NC(=O)Cc2csc(COc3cccc(C)c3)n2)c1
Reply: 72

Ask: Complete the entry with survival for Cc1ccc(-c2nn3c(-c4ccc(C)cc4)nnc3c3ccccc23)cc1
Reply: 20

Ask: Complete the entry with survival for Cc1ccc2cc(C(c3nnnn3C3CCCC3)N3CCCc4ccccc43)c(=O)[nH]c2c1 (stereo unspecified)
Reply: 97

----------
Tested on: DeltatarO mutant
METHOD DESCRIPTION: S. aureus survival, RN4220 and DeltatarO strains – OD600, teichoic acid synthesis inhibitors, primary screen (AID 463173)
CONDITION DESCRIPTION: S. aureus RN4220 wild type/DeltatarO growth, OD600, 18 h, hits give low values, screened at 18.75 µg/mL (by protocol)
About 4,300 (8.3%) of roughly 52,000 compounds were called active. The full list was thinned out, with actives kept by preference.
Mark true only when survival stays strictly below 50%. Values equal to the cut-off are false.

Ask: API: query returns whether the compound falls strictly under 50% in survival. Query: Cc1ccc(CNC(=O)Cn2c(SCC(=O)Nc3ccc(F)cc3)nc3ccccc32)cc1
Reply: false

Ask: API: query returns whether the compound falls strictly under 50% in survival. Query: COc1ccccc1C1CC(=O)NC(C)=C1C(=O)OC1CCCCCC1 (stereo not given)
Reply: false

Ask: API: query returns whether the compound falls strictly under 50% in survival. Query: COc1ccc(-c2cc(C)no2)cc1S(=O)(=O)N1CC(C)Oc2ccccc21 (stereo not given)
Reply: true

Ask: API: query returns whether the compound falls strictly under 50% in survival. Query: O=C(Nc1ccc(F)cc1)c1ccc(Cn2nc(N3CCN(c4ccccc4)CC3)ccc2=O)o1
Reply: false

Ask: API: query returns whether the compound falls strictly under 50% in survival. Query: O=C(CSc1nc2ccccc2n1Cc1ccc(F)cc1)N1CCN(c2ccc(F)cc2)CC1
Reply: false

Ask: API: query returns whether the compound falls strictly under 50% in survival. Query: Cc1cc(C)c(NC(=O)Cn2ccn(-c3cccc(Cl)c3)c(=O)c2=O)c(C)c1
Reply: false

Ask: API: query returns whether the compound falls strictly under 50% in survival. Query: COc1cccc(Cn2c(SCC(=O)N(C)c3ccccc3)nc3ccccc32)c1
Reply: true

Ask: API: query returns whether the compound falls strictly under 50% in survival. Query: CCOC(=O)c1noc2nc(C)n(CC(=O)Nc3cc(Cl)ccc3OC)c(=O)c12
Reply: false
